Data credit: patent US20230113037A1

System under test: UniProt P30561
Sequence (P30561 1-848 P471L/N533S/M589L): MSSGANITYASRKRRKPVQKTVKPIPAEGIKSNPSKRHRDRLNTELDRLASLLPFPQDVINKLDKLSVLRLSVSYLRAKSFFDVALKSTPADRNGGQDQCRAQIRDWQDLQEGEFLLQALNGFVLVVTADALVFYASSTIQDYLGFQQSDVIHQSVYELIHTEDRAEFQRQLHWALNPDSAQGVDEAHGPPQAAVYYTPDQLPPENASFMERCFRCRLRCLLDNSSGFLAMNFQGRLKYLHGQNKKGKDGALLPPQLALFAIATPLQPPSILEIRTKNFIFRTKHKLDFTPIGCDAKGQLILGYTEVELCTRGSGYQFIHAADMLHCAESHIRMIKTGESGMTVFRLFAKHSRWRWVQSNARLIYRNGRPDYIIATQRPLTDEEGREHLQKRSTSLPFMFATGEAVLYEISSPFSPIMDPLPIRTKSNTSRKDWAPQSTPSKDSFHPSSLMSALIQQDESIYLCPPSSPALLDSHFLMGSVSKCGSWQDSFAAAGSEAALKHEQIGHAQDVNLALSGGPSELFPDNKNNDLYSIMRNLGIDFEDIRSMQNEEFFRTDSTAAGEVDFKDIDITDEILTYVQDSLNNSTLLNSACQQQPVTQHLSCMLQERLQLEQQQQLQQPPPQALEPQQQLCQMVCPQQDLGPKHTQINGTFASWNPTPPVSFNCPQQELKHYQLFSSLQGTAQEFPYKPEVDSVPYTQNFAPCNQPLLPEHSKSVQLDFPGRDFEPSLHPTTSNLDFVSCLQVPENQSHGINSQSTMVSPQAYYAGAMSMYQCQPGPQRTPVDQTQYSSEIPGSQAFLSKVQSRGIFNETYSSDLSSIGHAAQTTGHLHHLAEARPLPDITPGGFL
Assay method text: In vitro assay 3: antagonism in mouse cell line (AHR transactivation, firefly luciferase reporter, kynurenic acid prestimulated)
Format: cell-based
Condition: mouse Hepa 1c1c7 cells, 200 μM kynurenic acid, 20 hours, read-out: AHR Antagonism Mouse IC50
pIC50: −log10 of the molar value.
We use 7 as the dividing line for pIC50: on or above the line is 1 (yes), below is 0 (no).

Lookup: Entry COc1cccc(-c2nc3c4ccccc4nc(NC4(C(N)=O)COC4)n3n2)c1 [Example 87] : is its pIC50 no less than 7?
Found: 0 (no)

Lookup: Entry Cn1cc(-c2nc3c4c(C#N)cccc4nc(N[C@@H]4CCCCNC4=O)n3n2)cn1 [Example 247] : is its pIC50 no less than 7?
Found: 0 (no)

Lookup: Entry CCCNC(=O)[C@@H](C)Nc1nc2ccccc2c2nc(-c3ccccc3OC(F)(F)F)nn12 [Example 465] : is its pIC50 no less than 7?
Found: 1 (yes)

Lookup: Entry COc1ccc(-c2nc3c4c(C(F)(F)F)cccc4nc(N[C@@H]4CNCCNC4=O)n3n2)cc1 [Example 285] : is its pIC50 no less than 7?
Found: 0 (no)

Lookup: Entry COc1ccc(-c2nc3c4ccccc4nc(N[C@@H]4CCCCNC4=O)n3n2)cc1C [Example 627] : is its pIC50 no less than 7?
Found: 1 (yes)

Lookup: Entry COc1ccc(-c2nc3c4cc(F)ccc4nc(N[C@@H]4CNCCNC4=O)n3n2)cc1 [Example 277] : is its pIC50 no less than 7?
Found: 1 (yes)
